Just for reference, patent US9617256B2 is where these values come from.

Would you mind telling me the reported MIC of each entry?
- Test system: AABA1060 (clinical isolate of Acinetobacter baumannii)
- Protocol summary: MIC broth microdilution, AABA1060
- Format: cell-based
- Study conditions: Acinetobacter baumannii, read-out: MIC AABA1060

Compound | System | MIC
C[C@@H](N)[C@H](NC(=O)c1ccc(C#CC#Cc2ccncc2)cc1)C(=O)NO | AABA1060 (clinical isolate of Acinetobacter baumannii) | 2 to 16 µg/mL
C[C@@H](N)[C@H](NC(=O)c1ccc(C#CC(O)c2ccc(CN3CCOCC3)cc2)cc1)C(=O)NO (stereo partly shown) | AABA1060 (clinical isolate of Acinetobacter baumannii) | 16 to 64 µg/mL
COC(C)[C@H](NC(=O)c1ccc(/C=C/C#Cc2ccc(CN3CCOCC3)cc2)cc1)C(=O)NO (stereo partly shown) | AABA1060 (clinical isolate of Acinetobacter baumannii) | 2 to 16 µg/mL
C[C@@H](N)[C@H](NC(=O)c1ccc(C#CC#Cc2ccc(CN3CCOCC3)cc2)cc1)C(=O)NO | AABA1060 (clinical isolate of Acinetobacter baumannii) | 2 to 16 µg/mL
CC(C)(N)[C@H](NC(=O)c1ccc(C#Cc2ccc(CN3CCCOCC3)cc2)cc1)C(=O)NO | AABA1060 (clinical isolate of Acinetobacter baumannii) | < 2 µg/mL

Batch request: MIC per item, same order as input.
1. CC(C)(O)[C@H](NC(=O)c1ccc(C#Cc2ccccc2)cc1)C(=O)NO
2. C[C@@H](N)[C@H](NC(=O)c1ccc(C#Cc2ccc(CN3CCOCC3)cc2)cc1)C(=O)O
3. CC(C)(N)C(NC(=O)c1ccc(C#Cc2ccc(CNC3CC3)cc2)cc1)C(=O)NO (stereo not shown)

["< 2 µg/mL", "> 64 µg/mL", "2 to 16 µg/mL"]

Batch request: MIC per item, same order as input.
1. CC(C)CCC#CC#Cc1ccc(C(=O)N[C@H](C(=O)NO)C(C)(C)O)cc1
2. CC(C)(O)[C@H](NC(=O)c1ccc(C#Cc2ccc(CNCC(F)F)cc2)cc1)C(=O)NO
3. C[C@@H](N)[C@H](NC(=O)c1ccc(C#Cc2cccnc2)cc1)C(=O)NO
4. C[C@@H](N)[C@H](NC(=O)c1ccc(C#CC#CC2CCC2)cc1)C(=O)NO
5. CC(C)(N)[C@H](NC(=O)c1ccc(C#CC#Cc2ccc(CN3CCS(=O)(=O)CC3)cc2)cc1)C(=O)NO
6. CC(C)(N)C(NC(=O)c1ccc(C#CC#Cc2ccc(CNC3CC3)cc2)cc1)C(=O)NO (stereo not shown)
7. C[C@@H](N)[C@H](NC(=O)c1ccc(C#CC#CC2CCCC2)cc1)C(=O)NO
8. C[C@@H](N)[C@H](NC(=O)c1ccc(C#CC#CC2CCNCC2)cc1)C(=O)NO

2 to 16 µg/mL
< 2 µg/mL
16 to 64 µg/mL
2 to 16 µg/mL
< 2 µg/mL
< 2 µg/mL
2 to 16 µg/mL
16 to 64 µg/mL

###

Would you mind telling me the reported MIC of each entry?
- Test system: AECO001 (ATCC25922)
- Protocol summary: MIC broth microdilution, AECO001
- Assay type: cell-based, E. coli
- Study conditions: Escherichia coli, ATCC25922, read-out: MIC AECO001

Molecule | MIC
CC(C)(O)[C@H](NC(=O)c1ccc(C#CC#Cc2ccccn2)cc1)C(=O)NO [Example 88-7] | < 2 µg/mL

Batch request: MIC per item, same order as input.
1. C[C@@H](N)[C@H](NC(=O)c1ccc(/C=C/C#Cc2cccnc2)cc1)C(=O)NO [Example 114-9]
2. O=C(NO)[C@H](COCc1ccccc1)NS(=O)(=O)c1ccc(C#Cc2ccc(CN3CCOCC3)cc2)cc1 [Example 62-5]
3. CO[C@H](C)[C@H](NC(=O)c1ccc(/C=C/C#Cc2ccc(CNC3CC3)cc2)cc1)C(=O)NO [Example 113-7]
4. C[C@@H](NCC(=O)NC[C@H](NC(=O)c1ccc(C#Cc2ccccc2)cc1)C(=O)NO)c1ccccc1 [Example 132-3]
5. CC(C)(N)C(NC(=O)c1ccc(C#Cc2ccc(CNC3CC3)cc2)cc1)C(=O)NO (stereo not shown) [Example 137-6]
6. O=C(N[C@H](C(=O)NO)c1ccsc1)c1ccc(C#Cc2ccc(CN3CCOCC3)cc2)cc1 [Example 67-8]

1: 2 to 16 µg/mL; 2: 2 to 16 µg/mL; 3: < 2 µg/mL; 4: < 2 µg/mL; 5: < 2 µg/mL; 6: < 2 µg/mL

###

- System: ASAU001 (laboratory strain of S. aureus, ATCC29213)
- Protocol summary: MIC broth microdilution, ASAU001
- Format: cell-based
- Study conditions: Staphylococcus aureus, ATCC29213, read-out: MIC ASAU001
Readout kind: MIC

Compound | MIC
CC(C)CCC#CC#Cc1ccc(C(=O)N[C@H](C(=O)NO)C(C)(C)N)cc1 | 2 to 16 µg/mL

Batch request: MIC per item, same order as input.
1. CC(C)(N)C(NC(=O)c1ccc(C#CC#Cc2ccncc2)cc1)C(=O)NO (stereo not shown)
2. C[C@@H](O)[C@H](NC(=O)c1ccc(/C=C/C#Cc2ccccc2)cc1)C(=O)NO

1: 16 to 64 µg/mL; 2: 16 to 64 µg/mL

Batch request: MIC per item, same order as input.
1. CC(C)CC#CC#Cc1ccc(C(=O)N[C@H](C(=O)NO)[C@@H](C)N)cc1
2. CC(C)(O)[C@H](NC(=O)c1ccc(C#CC#Cc2cccc(F)c2)cc1)C(=O)NO
3. C[C@@H](O)[C@H](NC(=O)c1ccc(Cc2ccc(CN3CCOCC3)cc2)cc1)C(=O)NO

1: 2 to 16 µg/mL; 2: 2 to 16 µg/mL; 3: > 64 µg/mL

Batch request: MIC per item, same order as input.
1. CC(C)C#CC#Cc1ccc(C(=O)N[C@H](C(=O)NO)C(C)(C)N)cc1
2. CC(C)(N)C(NC(=O)c1ccc(C#CC#CC2CC2)cc1)C(=O)NO (stereo not shown)
3. C[C@@H](N)[C@H](NC(=O)c1ccc(C#Cc2ccc(CCN)cc2)cc1)C(=O)NO
4. CSC[C@H](NS(=O)(=O)c1ccc(C#Cc2ccc(CN3CCOCC3)cc2)cc1)C(=O)NO

1: 2 to 16 µg/mL; 2: 16 to 64 µg/mL; 3: > 64 µg/mL; 4: > 64 µg/mL

###

- Test system: ASAU001 (laboratory strain of S. aureus, ATCC29213)
- Protocol summary: MIC broth microdilution, ASAU001
- Type: cell-based
- Study conditions: Staphylococcus aureus, ATCC29213, read-out: MIC ASAU001
Readout kind: MIC

Some molecules with recorded MIC:
Given smiles | Test value
C[C@@H](N)[C@H](NC(=O)c1ccc(C#C/C=C/c2ccncc2)cc1)C(=O)NO | 16 to 64 µg/mL
CC(C)(N)[C@H](NC(=O)c1ccc(C#CC#CC2CCC2)cc1)C(=O)NO | 2 to 16 µg/mL
CC(C)(N)[C@H](NC(=O)c1ccc(C#CC#Cc2ccc(O)cc2)cc1)C(=O)NO | 16 to 64 µg/mL

Batch request: MIC per item, same order as input.
1. C[C@@H](O)[C@H](NC(=O)c1ccc(N2CCN(c3ccc(CN4CCOCC4)cc3)CC2)cc1)C(=O)NO
2. CC(C)(O)[C@H](NC(=O)c1ccc(C#CC#Cc2ccc(N)cc2)cc1)C(=O)NO
3. CCCC#CC#Cc1ccc(C(=O)N[C@H](C(=O)NO)C(C)(C)N)cc1
4. C[C@@H](NCC(=O)N[C@H](C)[C@H](NC(=O)c1ccc(C#Cc2ccccc2)cc1)C(=O)NO)c1ccccc1
5. CC(C)(O)[C@H](NC(=O)c1ccc(/C=C/C#Cc2ccc(CO)cc2)cc1)C(=O)NO

1. > 64 µg/mL
2. 2 to 16 µg/mL
3. 2 to 16 µg/mL
4. 16 to 64 µg/mL
5. 16 to 64 µg/mL

Batch request: MIC per item, same order as input.
1. C[C@@H](N)[C@H](NC(=O)c1ccc(/C=C/C#Cc2ccc(F)cc2)cc1)C(=O)NO
2. CC(C)(N)[C@H](NC(=O)c1ccc(/C=C/C#Cc2ccccc2)cc1)C(=O)NO
3. CC(=O)NC[C@H](NC(=O)c1ccc(C#C/C=C/c2ccc(CN3CCOCC3)cc2)cc1)C(=O)NO
4. C[C@@H](N)[C@H](NC(=O)c1ccc(C#CC#Cc2ccc(N)cc2)cc1)C(=O)NO

1: 16 to 64 µg/mL; 2: 16 to 64 µg/mL; 3: > 64 µg/mL; 4: 16 to 64 µg/mL

Batch request: MIC per item, same order as input.
1. C[C@@H](O)[C@H](NC(=O)c1ccc(C#Cc2cccc(OC(F)(F)F)c2)cc1)C(=O)NO
2. C[C@@H](N)[C@H](NC(=O)c1ccc(C#Cc2ccc(CN3CCc4[nH]ncc4C3)cc2)cc1)C(=O)NO
3. C[C@@H](N)[C@H](NC(=O)c1ccc(C#CC#Cc2ccc(CO)cc2)cc1)C(=O)NO

["16 to 64 µg/mL", "16 to 64 µg/mL", "16 to 64 µg/mL"]

Tell me reported MIC for C[C@@H](N)[C@H](NC(=O)c1ccc(C#Cc2ccc(COC3CC3)cc2)cc1)C(=O)NO , tested with ASAU001 (laboratory strain of S. aureus, ATCC29213).
16 to 64 µg/mL
